- Test system: MCF7 breast
- ASSAY NOTES: NCI tumour cell line growth inhibition, 48 h
Here the recorded TGI is given for each entry.
MEASUREMENT TYPE: TGI

* CC(C#N)NCc1ccc(C(C)NC(C)C#N)cc1 (configuration not stated) | > 100 µM
* N#Cc1cc(-c2ccnc(Nc3ccc(NC(=O)CCl)cc3)n2)ccc1N1CCCC1 | 3.64 µM
* O=C1C(=O)/C(=C/c2ccccc2)CCCCCC/C1=C/c1ccccc1 | 31.8 µM
* O=[N+]([O-])c1cc([N+](=O)[O-])c(NN=C(c2ccc(O)cc2)c2ccc(O)cc2)cc1Cl | 3.3 µM
* CN(C)CCCNc1nc2ccccc2c2c(=O)c3cc(F)ccc3sc12 | 2.66 µM
* CCOC(=O)CCC(C(=O)OCC)n1nc2ccc(Nc3c(C)[n+]([O-])c4ccc(Cl)cc4[n+]3[O-])cc2n1 (configuration not stated) | 65.8 µM
* Clc1ccc(N=C2c3ccccc3CN2c2ccc(Cl)cc2)cc1 | > 100 µM
* [N-]=[N+]=CC(=O)OC1CCOCC1 | > 100 µM
* O=c1[nH]cnc2c1ncn2C1CCC(CO)O1 (configuration not stated) | > 1000 µM
* CCOc1ccccc1/C=C(/C#N)C(N)=O | > 100 µM
* COc1ccc(-c2cc(C(=O)N3N=C(c4ccc(N)cc4)CC3c3ccc(Cl)cc3)c3ccccc3n2)cc1 (configuration not stated) | > 100 µM
* O=C1c2cccc3cc4ccccc4c(c23)C(=O)N1CCNCCN1C(=O)c2cccc3cc4ccccc4c(c23)C1=O | 5.17 µM
* COc1ccc(C(c2ccc(OC)cc2)N2C(=O)CCC2C(=O)O)cc1 (configuration not stated) | > 100 µM
* COc1cc(C(=O)/C=C/c2c(-c3cccs3)nc3sccn23)cc(OC)c1OC | 88.4 µM
* CC(C)NC(=O)OCc1c(COC(=O)NC(C)C)c(-c2cc[n+](COC(=O)CC(C)(C)C)cc2)n2c1CCC2 | > 100 µM
* Nc1ccc(Sc2nnc(N)s2)cc1 | > 100 µM
* Nc1cnc(Nc2cccc3ccccc23)o1 | > 10 µM
* CCCCN1C=CCN(CCCC)C1 | > 100 µM
* CN1CCN(CCCNN)CC1 | > 100 µM
* Cn1cc(-c2csc(-c3c[nH]c4ccc(F)cc34)n2)c2cccnc21 | > 68.4 µM
* CCCOc1ccc2sc(NC(=O)c3cc([N+](=O)[O-])cc([N+](=O)[O-])c3)nc2c1 | > 100 µM
* CCOc1cc(NC(C)=O)ccc1C(=O)NNS(=O)(=O)c1ccc(Cl)cc1Cl | > 50 µM
